- System: HL-60
- assayOverview: Cytotoxicity against human HL-60 cells assessed as reduction in cell viability by MTT assay
- Type: functional, cell-based
pIC50: −log10 of the molar value.
The following compounds are listed with their measured pIC50 values.
property: pIC50

smilesrepresentation=CSc1cc2c(c3c1C[C@@](C)(O)CC3=O)C(=O)c1ccc([C@H]3CC[C@H](N(C)C)[C@H](C)O3)c(O)c1C2=O property=pIC50 numericresult=5.46
smilesrepresentation=CN[C@H]1CC[C@H](c2ccc3c(c2O)C(=O)c2cc(SC)c4cc(C)cc(O)c4c2C3=O)O[C@H]1C property=pIC50 numericresult=5.12

----------
Overview of reported pIC50 across a group of compounds:
- Tested on: SH-SY5Y
- assayOverview: Cytotoxicity against human SH-SY5Y cells assessed as reduction in cell viability by SRB assay
- Type: functional, cell-based
pIC50: −log10 of the molar value. Structures can show the parent of a compound that is named as a salt.
property: pIC50

compound=CSc1cc2c(c3c1C[C@@](C)(O)CC3=O)C(=O)c1ccc([C@H]3CC[C@H](N(C)C)[C@H](C)O3)c(O)c1C2=O property=pIC50 valuequalifier== numericresult=5.37
compound="COc1cccc2c1C(=O)c1c(O)c3c(c(O)c1C2=O)C[C@@](O)(C(=O)CO)C[C@@H]3O[C@H]1C[C@H](N)[C@H](O)[C@H](C)O1 [DOXORUBICIN HYDROCHLORIDE]" property=pIC50 valuequalifier== numericresult=6.30
compound=CN[C@H]1CC[C@H](c2ccc3c(c2O)C(=O)c2cc(SC)c4cc(C)cc(O)c4c2C3=O)O[C@H]1C property=pIC50 valuequalifier=< numericresult=5.00
